Hello, the source for this data is patent US11365188B2, in case you need it.

Target: JAK3 (Homo sapiens, UniProt P52333)
Sequence (P52333 1-1124): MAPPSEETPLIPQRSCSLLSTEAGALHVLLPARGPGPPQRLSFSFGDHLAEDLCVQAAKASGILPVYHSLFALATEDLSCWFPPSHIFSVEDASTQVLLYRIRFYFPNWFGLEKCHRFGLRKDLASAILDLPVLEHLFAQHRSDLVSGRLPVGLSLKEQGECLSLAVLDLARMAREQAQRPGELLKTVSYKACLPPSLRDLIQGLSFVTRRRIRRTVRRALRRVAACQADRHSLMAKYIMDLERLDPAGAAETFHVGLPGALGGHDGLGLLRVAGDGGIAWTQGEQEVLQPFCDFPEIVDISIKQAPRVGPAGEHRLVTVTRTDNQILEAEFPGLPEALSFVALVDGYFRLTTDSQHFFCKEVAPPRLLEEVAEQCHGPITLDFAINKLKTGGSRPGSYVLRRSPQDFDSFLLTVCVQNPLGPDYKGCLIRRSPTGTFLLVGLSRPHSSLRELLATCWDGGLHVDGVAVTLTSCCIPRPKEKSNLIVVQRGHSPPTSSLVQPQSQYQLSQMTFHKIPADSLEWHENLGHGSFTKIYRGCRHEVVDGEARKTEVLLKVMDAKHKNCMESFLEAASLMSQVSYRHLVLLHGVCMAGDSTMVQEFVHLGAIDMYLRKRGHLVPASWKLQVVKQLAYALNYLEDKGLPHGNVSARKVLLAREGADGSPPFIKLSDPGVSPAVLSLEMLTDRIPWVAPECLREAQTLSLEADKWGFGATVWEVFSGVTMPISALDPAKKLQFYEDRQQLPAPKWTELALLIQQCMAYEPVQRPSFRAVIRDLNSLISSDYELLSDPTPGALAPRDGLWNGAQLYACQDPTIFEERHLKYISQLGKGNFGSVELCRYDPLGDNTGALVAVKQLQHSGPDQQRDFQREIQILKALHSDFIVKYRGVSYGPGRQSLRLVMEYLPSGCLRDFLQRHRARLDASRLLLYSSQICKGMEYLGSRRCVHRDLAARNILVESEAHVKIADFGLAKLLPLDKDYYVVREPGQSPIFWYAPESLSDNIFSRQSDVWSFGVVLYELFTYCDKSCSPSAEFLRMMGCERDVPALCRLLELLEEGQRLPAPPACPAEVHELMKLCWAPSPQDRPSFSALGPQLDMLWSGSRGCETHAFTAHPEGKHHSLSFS
pIC50: −log10 of the molar value.
measured metric: pIC50

CN(c1ncnc2[nH]ccc12)C1CC2(C1)CN(C(=O)c1ccc(Cl)cn1)C2: ≤ 5.00
CN(c1ncnc2[nH]ccc12)C1CCC2(CC1)CCN(C(=O)c1cnccn1)CC2: 5.00 to 6.00
CN(c1ncnc2[nH]ccc12)C1CC2(C1)CN(C(=O)c1cnn(C3CC3)c1)C2: ≤ 5.00

Incoming: Given `CN(c1ncnc2[nH]ccc12)C1CC2(C1)CN(C(=O)c1ccc(C#N)c(F)c1F)C2` , state its recorded pIC50.
Outgoing: 5.00 to 6.00

Incoming: // same read-out, input: `CN(c1ncnc2[nH]ccc12)C1CC2(C1)CN(C(=O)c1ccc(-c3ccn(C)n3)cc1)C2`
Outgoing: 5.00 to 6.00

Incoming: // same read-out, input: `C#Cc1ccc(C(=O)N2CC3(CC(N(C)c4ncnc5[nH]ccc45)C3)C2)cc1F`
Outgoing: 5.00 to 6.00

Incoming: // same read-out, input: `CN(c1ncnc2[nH]ccc12)C1CC2(C1)CN(C(=O)c1ccc(C#N)c(Cl)c1)C2`
Outgoing: 5.00 to 6.00

Incoming: // same read-out, input: `COC(=O)N1CCC2(CCC(N(C)c3ncnc4[nH]ccc34)CC2)CC1`
Outgoing: 6.00 to 7.00
